Biological target: Ikaros (Homo sapiens, UniProt Q13422)
Construct: fluorescently labelled antibodies against Helios and Ikaros; endogenous in cells; host or cells: Jurkat cells
Sequence (Q96SW2 whole entry partner): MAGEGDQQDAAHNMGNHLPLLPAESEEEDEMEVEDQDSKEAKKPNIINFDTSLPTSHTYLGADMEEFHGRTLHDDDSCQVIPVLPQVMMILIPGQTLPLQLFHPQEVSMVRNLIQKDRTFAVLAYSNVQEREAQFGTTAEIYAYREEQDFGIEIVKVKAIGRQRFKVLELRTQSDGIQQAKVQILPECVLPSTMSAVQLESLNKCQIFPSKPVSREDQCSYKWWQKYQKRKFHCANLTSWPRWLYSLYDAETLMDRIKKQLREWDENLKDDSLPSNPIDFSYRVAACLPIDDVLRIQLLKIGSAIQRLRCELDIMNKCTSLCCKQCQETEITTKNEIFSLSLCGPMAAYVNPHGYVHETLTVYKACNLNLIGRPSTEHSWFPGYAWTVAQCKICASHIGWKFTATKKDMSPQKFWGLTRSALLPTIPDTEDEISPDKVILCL
Sequence (Q16531 whole entry partner): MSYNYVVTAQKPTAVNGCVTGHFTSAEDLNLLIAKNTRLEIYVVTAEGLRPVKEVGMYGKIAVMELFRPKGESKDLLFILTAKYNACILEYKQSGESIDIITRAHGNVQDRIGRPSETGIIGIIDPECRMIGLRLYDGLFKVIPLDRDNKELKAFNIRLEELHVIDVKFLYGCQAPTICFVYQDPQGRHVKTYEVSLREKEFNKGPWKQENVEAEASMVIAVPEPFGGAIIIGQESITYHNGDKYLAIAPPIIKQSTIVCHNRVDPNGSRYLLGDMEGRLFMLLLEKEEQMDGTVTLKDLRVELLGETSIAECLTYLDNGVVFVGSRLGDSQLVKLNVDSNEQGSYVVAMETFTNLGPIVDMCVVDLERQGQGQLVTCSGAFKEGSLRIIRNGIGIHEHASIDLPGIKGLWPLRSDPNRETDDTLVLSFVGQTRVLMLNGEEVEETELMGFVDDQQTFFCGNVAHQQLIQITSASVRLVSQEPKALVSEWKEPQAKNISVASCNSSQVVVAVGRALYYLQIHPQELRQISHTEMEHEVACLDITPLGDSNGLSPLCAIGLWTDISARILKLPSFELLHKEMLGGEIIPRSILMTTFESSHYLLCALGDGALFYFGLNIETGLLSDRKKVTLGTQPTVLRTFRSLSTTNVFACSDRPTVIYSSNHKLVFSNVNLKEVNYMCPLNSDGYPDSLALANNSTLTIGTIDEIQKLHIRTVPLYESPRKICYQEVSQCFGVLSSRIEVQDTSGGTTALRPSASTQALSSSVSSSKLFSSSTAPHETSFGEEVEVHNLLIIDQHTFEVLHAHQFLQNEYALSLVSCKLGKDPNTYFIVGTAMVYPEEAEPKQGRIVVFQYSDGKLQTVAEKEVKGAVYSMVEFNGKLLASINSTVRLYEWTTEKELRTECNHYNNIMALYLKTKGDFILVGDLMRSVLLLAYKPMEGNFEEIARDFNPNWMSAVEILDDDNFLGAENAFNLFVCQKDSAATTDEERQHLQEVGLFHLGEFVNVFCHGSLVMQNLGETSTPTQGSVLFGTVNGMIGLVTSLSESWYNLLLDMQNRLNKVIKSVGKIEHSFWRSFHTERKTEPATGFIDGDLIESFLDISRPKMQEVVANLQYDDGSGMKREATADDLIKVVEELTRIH
Sequence (Q13422 whole entry): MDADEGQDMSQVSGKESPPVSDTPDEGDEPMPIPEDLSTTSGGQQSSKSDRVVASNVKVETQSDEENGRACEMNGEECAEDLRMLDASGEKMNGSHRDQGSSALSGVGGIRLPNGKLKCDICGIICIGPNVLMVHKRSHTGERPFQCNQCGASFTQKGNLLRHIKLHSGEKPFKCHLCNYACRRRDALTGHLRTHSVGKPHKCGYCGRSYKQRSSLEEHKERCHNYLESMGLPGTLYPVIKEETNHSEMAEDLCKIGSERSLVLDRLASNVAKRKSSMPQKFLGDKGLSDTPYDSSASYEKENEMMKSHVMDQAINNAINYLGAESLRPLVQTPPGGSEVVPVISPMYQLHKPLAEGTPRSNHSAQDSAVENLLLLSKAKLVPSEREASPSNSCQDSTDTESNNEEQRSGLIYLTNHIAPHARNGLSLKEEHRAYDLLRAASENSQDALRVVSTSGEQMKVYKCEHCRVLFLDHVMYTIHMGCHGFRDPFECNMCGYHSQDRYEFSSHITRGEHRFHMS
Experiment: Helios Cellular Degradation Assay, Ikaros readout (flow cytometry, Ikaros-Alexa488 antibody staining, 72 h)
Type: cell-based
Details: Jurkat cells, 72 h incubation, flow cytometry
Measured Property: DC50

Solved entries:
Compound | Measured Property | Endpoint Result
O=C1CCC(N2Cc3cc(-c4cc(CN(Cc5ccccc5)Cc5ccccc5)ccn4)ccc3C2=O)C(=O)N1 (centres unmarked) | DC50 | > 10 µM
CCN(C)Cc1ccnc(-c2ccc3c(c2)CN(C2CCC(=O)NC2=O)C3=O)c1 (centres unmarked) [Example 4] | DC50 | > 10 µM

Proceed to the following item.
Query: Complete the entry with DC50 for O=C1CCC(N2Cc3cc(-c4cc(CN5CC(c6ccccc6)C5)c(Cl)cn4)ccc3C2=O)C(=O)N1 (centres unmarked)
Result: > 10 µM

====

Biological target: Helios (Homo sapiens, UniProt Q96SW2+Q9UKS7)
Construct: fluorescently labelled antibodies against Helios and Ikaros; endogenous in cells; host or cells: Jurkat cells
Sequence (Q9UKS7 whole entry): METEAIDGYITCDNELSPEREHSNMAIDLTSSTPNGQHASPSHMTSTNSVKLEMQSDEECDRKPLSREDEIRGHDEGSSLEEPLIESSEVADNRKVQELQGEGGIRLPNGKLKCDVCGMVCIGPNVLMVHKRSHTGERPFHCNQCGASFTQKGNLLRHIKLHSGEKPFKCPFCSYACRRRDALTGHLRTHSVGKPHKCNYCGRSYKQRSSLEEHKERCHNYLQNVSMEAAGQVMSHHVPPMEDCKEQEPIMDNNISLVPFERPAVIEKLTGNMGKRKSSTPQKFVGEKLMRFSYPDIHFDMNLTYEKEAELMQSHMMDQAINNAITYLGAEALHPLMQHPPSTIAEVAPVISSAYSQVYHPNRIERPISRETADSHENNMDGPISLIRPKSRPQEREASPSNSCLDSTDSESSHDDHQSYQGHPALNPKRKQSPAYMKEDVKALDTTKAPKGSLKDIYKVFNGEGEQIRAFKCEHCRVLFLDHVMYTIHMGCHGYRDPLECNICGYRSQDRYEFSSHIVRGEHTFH
Sequence (Q96SW2 whole entry): as the sequence (Q96SW2 whole entry partner) above
Sequence (Q16531 whole entry partner): as the sequence (Q16531 whole entry partner) above
Experiment: Helios Cellular Degradation Assay (flow cytometry, Helios-PE antibody staining, 72 h)
Type: cell-based
Conditions: Jurkat cells, 72 h incubation, flow cytometry
# note: boundary value 90 nM maps to no (0); DC50 below it maps to yes (1)

Query: # check: DC50 < 90 nM for O=C1CCC(N2Cc3cc(-c4cc(CN5CCCC5)ccn4)ccc3C2=O)C(=O)N1 (stereo not shown)
Result: yes (1)

====

Biological target: Helios (Homo sapiens, UniProt Q96SW2+Q9UKS7)
Construct: fluorescently labelled antibodies against Helios and Ikaros; endogenous in cells; host or cells: Jurkat cells
Experiment: Helios Cellular Degradation Assay (flow cytometry, Helios-PE antibody staining, 72 h)
Assay type: cell-based
Details: Jurkat, Jurkat cells, 72 h incubation, flow cytometry; read-out: Helios Dmax
Measured Property: Dmax (%)
# output: bare number, implied unit %

The examples below pair each entry with its known result.
Compound | Dmax (%)
Cc1ccccc1CNCc1ccnc(-c2ccc3c(c2)CN(C2CCC(=O)NC2=O)C3=O)c1 (stereo not shown) | 88
CN(Cc1ccc(C(F)(F)F)cc1)Cc1ccnc(-c2ccc3c(c2)CN(C2CCC(=O)NC2=O)C3=O)c1 (stereo not shown) | 17
O=C1CCC(N2Cc3cc(-c4cc(CNCCCN5CCCC5=O)ccn4)ccc3C2=O)C(=O)N1 (stereo not shown) | 78
CN(Cc1ccnc(-c2ccc3c(c2)CN(C2CCC(=O)NC2=O)C3=O)c1)Cc1cncn1C (stereo not shown) | 54
O=C1CCC(N2Cc3cc(-c4cc(CNCCO)ccn4)ccc3C2=O)C(=O)N1 (stereo not shown) | 92

Query: # return recorded Dmax for entry O=C1CCC(N2Cc3cc(-c4cc(CN5CC(c6ccccc6)C5)c(Cl)cn4)ccc3C2=O)C(=O)N1 (stereo not shown)
Result: 62

Query: Note down Dmax recorded for COc1ccc(CNCc2ccnc(-c3ccc4c(c3)CN(C3CCC(=O)NC3=O)C4=O)c2)cc1 (stereo not shown)
Result: 41

Query: Give a short answer stating reported Dmax for C[C@@H](NCc1ccnc(-c2ccc3c(c2)CN(C2CCC(=O)NC2=O)C3=O)c1)c1ccccc1 (stereo partly shown) .
Result: 88

Query: Supply recorded Dmax for CC1CCC(C)N1Cc1ccnc(-c2ccc3c(c2)CN(C2CCC(=O)NC2=O)C3=O)c1 (stereo not shown) here.
Result: 53

Query: Supply measured Dmax of CN(C)[C@H]1CCN(Cc2ccnc(-c3ccc4c(c3)CN(C3CCC(=O)NC3=O)C4=O)c2)C1 (stereo partly shown) in your reply.
Result: 50
